Data provenance is the NIST ThermoML archive (doi:10.1021/je060170c).

condition-details: 303.15 K; 101 kPa; Liquid
assay-endpoint: mass density (kg/m3)
All answers are understood in kg/m3, so give the number only.

Solved entries (count: 3):
Cc1ccccc1C [1,2-dimethylbenzene] : 870.726
Cc1ccccc1 [toluene] : 857.464
c1ccccc1 [benzene] : 868.174

Query :: Item Cc1ccc(C)cc1 [1,4-dimethylbenzene] has what recorded mass density?
Result :: 852.255

Query :: // query: Cc1cccc(C)c1 [1,3-dimethylbenzene]
Result :: 855.469

Query :: // query: Cc1cc(C)cc(C)c1 [1,3,5-trimethylbenzene]
Result :: 856.95

====

condition-details: 303.15 K; 101 kPa; Liquid; Anton Paar Stabinger viscometer
assay-endpoint: viscosity (mPa·s)
All answers are understood in mPa·s, so give the number only.

Cc1ccccc1 : 0.523
c1ccccc1 : 0.571
Cc1ccc(C)cc1 : 0.576
Cc1cccc(C)c1 : 0.552
Cc1cc(C)cc(C)c1 : 0.621
Cc1ccccc1C : 0.708

Now for the compound whose viscosity we want.
Query :: Item `COc1ccccc1` has what recorded viscosity?
Result :: 0.931
